Ref: ChEMBL document CHEMBL1141079

# Test system: HL-60
# METHOD_SUMMARY: In vitro inhibitory concentration against human promyelocytic leukemia HL60 cell line
# Format: functional, cell-based
READOUT_TYPE: IC50 (µM)

• OC[C@H]1OC(n2cnc3c(-c4ccccn4)ncnc32)[C@H](O)[C@@H]1O (stereo not given in full) = 5.6
• OC[C@H]1OC(n2cnc3c(-c4ccoc4)ncnc32)[C@H](O)[C@@H]1O (stereo not given in full) = 3.3
• OC[C@H]1OC(n2cnc3c(-c4cc[nH]n4)ncnc32)[C@H](O)[C@@H]1O (stereo not given in full) = 1.17
• OC[C@H]1O[C@@H](n2cnc3c(-c4ccccc4)ncnc32)[C@H](O)[C@@H]1O = 6.3

I = OC[C@H]1O[C@@H](n2cnc3c(-c4cccs4)ncnc32)[C@H](O)[C@@H]1O
II = OC[C@H]1OC(n2cnc3c(-c4cc[nH]c4)ncnc32)[C@H](O)[C@@H]1O (stereo not given in full)
stdin: Which has the higher IC50, I or II ? Identify your selection by its label.
stdout: I

a = Cc1csc(-c2ncnc3c2ncn3C2O[C@H](CO)[C@@H](O)[C@H]2O)c1 (stereo not given in full)
b = OC[C@H]1OC(n2cnc3c(-c4ccco4)ncnc32)[C@H](O)[C@@H]1O (stereo not given in full)
stdin: Compare reported IC50 values for a and b . Which is lower? Identify your selection by its label.
stdout: b
(b: 2.7 µM, a: 5.6 µM)

1 = COc1ccc(-c2ncnc3c2ncn3C2O[C@H](CO)[C@@H](O)[C@H]2O)cc1 (stereo not given in full)
2 = Cc1ccsc1-c1ncnc2c1ncn2C1O[C@H](CO)[C@@H](O)[C@H]1O (stereo not given in full)
stdin: Which has the higher IC50, 1 or 2 ? Identify your selection by its label.
stdout: 1
(1: 7.6 µM, 2: 4.5 µM)

A = Cn1cccc1-c1ncnc2c1ncn2C1O[C@H](CO)[C@@H](O)[C@H]1O (stereo not given in full)
B = OC[C@H]1OC(n2cnc3c(-c4ccc(O)cc4)ncnc32)[C@H](O)[C@@H]1O (stereo not given in full)
stdin: Compare reported IC50 values for A and B . Which is lower? Identify your selection by its label.
stdout: B

====

# System: HeLa
# METHOD_SUMMARY: In vitro inhibitory concentration against human cervix carcinoma HeLaS3 cell line
# Assay type: functional, cell-based
pIC50: −log10 of the molar value.
READOUT_TYPE: pIC50

1 = Cc1csc(-c2ncnc3c2ncn3C2O[C@H](CO)[C@@H](O)[C@H]2O)c1 (some centres not stated)
2 = OC[C@H]1O[C@@H](n2cnc3c(-c4cccs4)ncnc32)[C@H](O)[C@@H]1O
stdin: Compare reported pIC50 values for 1 and 2 . Which is lower? Identify your selection by its label.
stdout: 2

I = OC[C@H]1OC(n2cnc3c(-c4ccco4)ncnc32)[C@H](O)[C@@H]1O (some centres not stated)
II = OC[C@H]1OC(n2cnc3c(-c4ccc(F)cc4)ncnc32)[C@H](O)[C@@H]1O (some centres not stated)
stdin: Compare reported pIC50 values for I and II . Which is lower? Identify your selection by its label.
stdout: I

A = OC[C@H]1OC(n2cnc3c(-c4ccccn4)ncnc32)[C@H](O)[C@@H]1O (some centres not stated)
B = OC[C@H]1OC(n2cnc3c(-c4ccc(O)cc4)ncnc32)[C@H](O)[C@@H]1O (some centres not stated)
stdin: Compare reported pIC50 values for A and B . Which is lower? Identify your selection by its label.
stdout: B
